Where do these numbers come from? They come from ChEMBL document CHEMBL1123367.

- Experiment Description: Half-life of the initial pseudo-first-order isomerization at apparent pH 1.0 and 25 degree celsius
- Assay type: ADME
- Run Conditions: read-out: T1/2 app
Measurement Label: half-life

# return recorded half-life for input O=C1NCCCN1[C@@H]1O[C@H](CO)[C@@H](O)[C@H]1O
< 12 min
